// data source = patent US9518022B2

- assay_details: Cytotoxicity assay (AlamarBlue) in mock infected MT-2 cells
- Format: cell-based
- test_context: human
Label key: t means CC50 at 96 h under 4 µM; f means CC50 at 96 h of 4 µM or more.

Solved cases below.
{"compound": "COc1cccc(-c2ncc(/C=C/C3NCCc4cc(OCc5ccccc5)c(OC)cc43)cn2)c1 (stereo not drawn)", "class_label": "f"}
{"compound": "COc1cc(C)c(/C=C/C2NCCc3cc(OCc4ccccc4)c(OC)cc32)cc1OCc1ccccc1 (stereo not drawn)", "class_label": "t"}
{"compound": "COc1cc2c(cc1OCc1ccccc1)CCNC2/C=C/c1sccc1C (stereo not drawn)", "class_label": "f"}
{"compound": "COc1cc2c(cc1OCc1ccccc1)CCNC2/C=C/c1cccc2c1OCCC2 (stereo not drawn)", "class_label": "f"}
{"compound": "COc1cc2c(cc1OCc1ccccc1)CCNC2/C=C/c1ccc(F)c(O)c1F (stereo not drawn)", "class_label": "f"}

Next compound, please.
State whether 4 µM exceeds CC50 at 96 h recorded for COc1cc2c(cc1OCc1ccccc1)CCNC2/C=C/c1cc(C(C)C)c(OC)cc1C (stereo not drawn) .
t

====

- Tested on: HIV-1 NL4-3 viral clone engineered to express Renilla luciferase in place of Nef
- assay_details: microbe, parasite or virus in culture
- Assay type: cell-based
- test_context: Human immunodeficiency virus 1, NL43, MT2, 96 h
Label key: satisfied means EC50 under 0.9 µM; not satisfied means EC50 of 0.9 µM or more.

Solved cases below.
{"compound": "COc1cc2c(cc1OCc1ccccc1)CCNC2/C=C/c1ccc2cn[nH]c2c1 (stereo not shown)", "subject_of_test": "HIV-1 NL4-3 viral clone engineered to express Renilla luciferase in place of Nef", "class_label": "satisfied"}
{"compound": "COc1cc2c(cc1OCc1ccccc1)CCNC2/C=C/c1cccc(S(C)(=O)=O)c1 (stereo not shown)", "subject_of_test": "HIV-1 NL4-3 viral clone engineered to express Renilla luciferase in place of Nef", "class_label": "not satisfied"}
{"compound": "COc1cc2c(cc1/C=C/C1NCCc3cc(OCc4ccccc4)c(OC)cc31)OCO2 (stereo not shown)", "subject_of_test": "HIV-1 NL4-3 viral clone engineered to express Renilla luciferase in place of Nef", "class_label": "satisfied"}
{"compound": "COc1cc(/C=C/C2NCCc3cc(OCc4ccccc4)c(OC)cc32)c(N(C)C)cc1OC (stereo not shown)", "subject_of_test": "HIV-1 NL4-3 viral clone engineered to express Renilla luciferase in place of Nef", "class_label": "satisfied"}

State whether 0.9 µM exceeds EC50 recorded for COc1cc2c(cc1/C=C/C1NCCc3cc(OCc4ccccc4)c(OC)cc31)OCCO2 (stereo not shown) .
satisfied

State whether 0.9 µM exceeds EC50 recorded for COc1cc2c(cc1OCc1ccccc1)CCNC2/C=C/c1ccc2c(ccn2C(=O)OC(C)(C)C)c1 (stereo not shown) .
not satisfied

====

- assay_details: Cytotoxicity assay (AlamarBlue) in mock infected MT-2 cells
- Format: cell-based
- test_context: human
Label key: fulfilled means CC50 at 96 h under 5 µM; not fulfilled means CC50 at 96 h of 5 µM or more.

{"compound": "COc1cc2c(cc1OCc1ccccc1)CCNC2/C=C/c1nccs1 (stereo not shown)", "class_label": "not fulfilled"}

State whether 5 µM exceeds CC50 at 96 h recorded for COc1cc2c(cc1OCc1ccccc1)CCNC2/C=C/c1ccc2c(ccn2C(=O)OC(C)(C)C)c1 (stereo not shown) .
not fulfilled

State whether 5 µM exceeds CC50 at 96 h recorded for COc1ccc(/C=C/C2NCCc3cc(OCc4ccccc4)c(OC)cc32)cc1Cn1ccnc1C (stereo not shown) .
fulfilled

State whether 5 µM exceeds CC50 at 96 h recorded for COc1ccc(/C=C/C2NCCc3cc(OCc4ccccc4)c(OC)cc32)cc1 (stereo not shown) .
not fulfilled

State whether 5 µM exceeds CC50 at 96 h recorded for COc1cc2c(cc1OCc1ccccc1)CCNC2/C=C/c1cn(C)c2ncccc12 (stereo not shown) .
fulfilled

State whether 5 µM exceeds CC50 at 96 h recorded for COc1cc2c(cc1OCc1ccccc1)CCNC2/C=C/c1c(C)ccc2c1OCCC2 (stereo not shown) .
not fulfilled

State whether 5 µM exceeds CC50 at 96 h recorded for COc1cc2c(cc1OCc1ccccc1)CCNC2/C=C/c1ccccc1N (stereo not shown) .
not fulfilled

State whether 5 µM exceeds CC50 at 96 h recorded for COc1cc2c(cc1OCc1ccccc1)CCNC2/C=C/c1cccnc1N(C)C (stereo not shown) .
not fulfilled

State whether 5 µM exceeds CC50 at 96 h recorded for COc1cc2c(cc1OCc1ccccc1)CCNC2/C=C/c1cc2c(cc1C)OCO2 (stereo not shown) .
fulfilled

State whether 5 µM exceeds CC50 at 96 h recorded for COc1cc2c(cc1OCc1ccccc1)CCNC2/C=C/c1cc(OCc2ccccc2)ccc1C (stereo not shown) .
fulfilled

State whether 5 µM exceeds CC50 at 96 h recorded for CCOC(=O)CCCOc1cc(/C=C/C2NCCc3cc(OCc4ccccc4)c(OC)cc32)ccc1OC (stereo not shown) .
fulfilled

====

Listing of recorded CC50 at 96 h by entry.
- assay_details: Cytotoxicity assay (AlamarBlue) in mock infected MT-2 cells
- Assay type: cell-based
- test_context: human
Report the figure in µM without appending any unit label.

Previously resolved entries follow.
{"compound": "COc1cc2c(cc1OCc1ccccc1)CCNC2/C=C/c1cccc(-c2ccncc2)c1 (stereo not drawn)", "property_name": "CC50 at 96 h", "value_unit": "µM", "endpoint_result": 4.4}
{"compound": "COc1ccc(/C=C/C2NCCc3cc(OCc4ccccc4)c(OC)cc32)cc1F (stereo not drawn)", "property_name": "CC50 at 96 h", "value_unit": "µM", "endpoint_result": 33.5}
{"compound": "COc1cc2c(cc1OCc1ccccc1)CCNC2/C=C/c1ccc(-c2ncco2)cc1 (stereo not drawn)", "property_name": "CC50 at 96 h", "value_unit": "µM", "endpoint_result": 7.5}
{"compound": "COc1cc2c(cc1OCc1ccccc1)CCNC2/C=C/c1ccc(OC)c2occc12 (stereo not drawn)", "property_name": "CC50 at 96 h", "value_unit": "µM", "endpoint_result": 3.7}

Recorded CC50 at 96 h for COc1cc2c(cc1OCc1ccccc1)CCNC2/C=C/c1ccc(S(C)(=O)=O)cc1 (stereo not drawn) , please?
1

Recorded CC50 at 96 h for COc1cc2occc2cc1/C=C/C1NCCc2cc(OCc3ccccc3)c(OC)cc21 (stereo not drawn) , please?
6

Recorded CC50 at 96 h for CCOC(=O)c1coc(-c2ccc(/C=C/C3NCCc4cc(OCc5ccccc5)c(OC)cc43)cc2)n1 (stereo not drawn) , please?
5.9

Recorded CC50 at 96 h for COc1cc2c(cc1OCc1ccccc1)CCNC2/C=C/c1cccc(C(F)(F)F)c1 (stereo not drawn) , please?
10

Recorded CC50 at 96 h for COc1ccc(/C=C/C2NCCc3cc(OCc4ccccc4)c(OC)cc32)c(F)c1 (stereo not drawn) , please?
10

====

- assay_details: Cytotoxicity assay (AlamarBlue) in mock infected MT-2 cells
- Type: cell-based
- test_context: human
property_name: CC50 at 96 h (µM)
Report the figure in µM without appending any unit label.

Previously resolved entries follow.
{"compound": "CCCCOc1cc(/C=C/C2NCCc3cc(OCc4ccccc4)c(OC)cc32)c(C)cc1OC (centres unmarked) [BL]", "value_unit": "µM", "CC50 at 96 h": 1.1}
{"compound": "COc1cc(C)c(/C=C/C2c3cc(OC)c(OCc4ccccc4)cc3CCN2C)cc1OCc1ccccc1 (centres unmarked) [Example E]", "value_unit": "µM", "CC50 at 96 h": 7.17}
{"compound": "COc1cc2c(cc1OCc1ccccc1)CCNC2/C=C/c1cn(C(=O)OC(C)(C)C)c2ccccc12 (centres unmarked) [CI]", "value_unit": "µM", "CC50 at 96 h": 4.98}
{"compound": "COc1cc2c(cc1OCc1ccccc1)CCNC2/C=C/c1ccc2cn[nH]c2c1 (centres unmarked) [BT]", "value_unit": "µM", "CC50 at 96 h": 7.98}

Recorded CC50 at 96 h for COc1cc2c(cc1OCc1ccccc1)CCNC2/C=C/c1ccc(OC)c(C)c1C (centres unmarked) [EL] , please?
3.25

Recorded CC50 at 96 h for COc1cc(C)c(/C=C/C2NCCc3cc(OCc4ccccc4)c(OC)cc32)cc1OCCCC(=O)O (centres unmarked) [BO] , please?
8.96

Recorded CC50 at 96 h for COc1ccc(/C=C/C2NCCc3cc(OCc4ccccc4)c(OC)cc32)cc1C (centres unmarked) [EI] , please?
11.8

Recorded CC50 at 96 h for CCc1cc(OC)c(OCc2ccccc2)cc1/C=C/C1NCCc2cc(OCc3ccccc3)c(OC)cc21 (centres unmarked) [Example AA] , please?
3.89
